# Test system: IGROV1 ovarian
# Run description: NCI tumour cell line growth inhibition, 48 h
Each item that follows carries a reported TGI.

COc1ccc(NC(=O)CC(=O)N/N=C/c2ccc(N(CCC#N)S(=O)(=O)c3ccccc3)cc2)cc1 | > 100 µM
NC(Cc1ccnnc1)C(=O)O (stereo not given) | > 100 µM
CC1(C)CCC[C@@]2(C)C1C(=O)[C@@H]1O[C@]1(C)[C@@H]2CO (stereo not given in full) | > 100 µM
CCO/C(O)=C(/C(=N)N1CCCC1)C(=O)Nc1ccc(F)cc1 | > 100 µM

Check the records and state TGI for C=CCC(N[C@H](CO)c1ccccc1)c1cn(S(=O)(=O)c2ccc(C)cc2)c2ccccc12 (stereo not given in full)
47.3 µM

---

# Tested on: HOP-92 NSCLC
# Run description: NCI tumour cell line growth inhibition, 48 h
Measured attribute: TGI

Illustrative cases are given below, each with its answer.
C/C(=N\Nc1nc2ccccc2o1)c1cc(C)ncn1 | > 21.7 µM
CN(C)CC1(Cc2ccccc2)CCC(Cc2ccccc2)C1=O (stereo unspecified) | 40 µM
N[C@@H]1CCCC[C@@H]1N.O=C([O-])CN(CP(=O)([O-])[O-])CP(=O)([O-])[O-].[Pt+2] | > 100 µM
CCSC1=N/C(=C/c2ccccc2O)C(=O)N1 | > 100 µM
COc1cc(-c2cc(/C=C3\C(=O)Nc4ccccc43)[nH]n2)cc(OC)c1OC | 9.12 µM

Next molecule, please.
Check the records and state TGI for Cc1c2n(c3ccccc13)CC1CON(C)C21 (stereo unspecified)
> 100 µM

---

# Tested on: SN12C renal
# Run description: NCI tumour cell line growth inhibition, 48 h
Each item that follows carries a reported TGI.

Illustrative cases are given below, each with its answer.
COC(=O)/C(=C/c1ccc(OC)cc1)NC(=O)c1ccccc1 | > 100 µM
O=C1c2ccccc2C(C2c3ccccc3C(=O)c3cc(Br)ccc32)c2ccc(Br)cc21 (stereo unspecified) | > 100 µM
Cc1cc(=O)oc2c(C)c3oc(CBr)c(Br)c3cc12 | 58.7 µM

Next molecule, please.
Check the records and state TGI for "c1cc(-c2cn[nH]c2)cc(-c2cn[nH]c2)c1"
> 100 µM

---

Each item that follows carries a reported TGI.
# Test system: KM12 colon
# Run description: NCI tumour cell line growth inhibition, 48 h

Illustrative cases are given below, each with its answer.
Cn1c(=O)cc(NCCc2ccccc2)[nH]c1=O | > 100 µM
COc1ccc(Cl)cc1NC(=O)c1cccc([N+](=O)[O-])c1O | > 72 µM
NCCP(=O)(O)O | > 100 µM
O=[N+]([O-])c1ccc2c(c1)nc(Cc1ccc(Cl)cc1)n2C[C@@H]1CCCN2CCCCC12 (stereo not given in full) | 27.9 µM
CNC(=O)OC1C(O[C@H]2C[C@H]3[C@@H]4CC=C5C[C@@H](O)CC[C@]5(C)[C@H]4CC[C@]3(C)[C@H]2[C@H](C)C(=O)CCC(C)C)OCC(O)C1OC1OCC(O)C(O)C1OC(=O)c1ccc(OC)cc1 (stereo not given in full) | 4.97 µM

Check the records and state TGI for "O[C@H]1[C@H]2[C@H](O)C[C@H](CCOCc3ccccc3)CN2C[C@H]1O"
> 100 µM

Check the records and state TGI for "Cc1cc(=O)[nH]c(/N=C(\N)Nc2ccc(Cl)cc2)n1"
> 100 µM

Check the records and state TGI for "CCN(CC)Cc1cc(Nc2c3ccccc3nc3c4ccccc4n(C)c23)ccc1O"
23.9 µM

Check the records and state TGI for "O=C(NCCNCCNC(=O)C(F)(F)F)C(F)(F)F"
> 100 µM

Check the records and state TGI for "O=C(O)/C(=C\c1ccccc1Cl)S(=O)(=O)c1ccccc1"
> 100 µM

---

Each item that follows carries a reported TGI.
# System: NCI/ADR-RES ovarian
# Run description: NCI tumour cell line growth inhibition, 48 h
Numbers only; they are read as µM.

O=[N+]([O-])/C=C\c1c[nH]c2ccc(OCc3ccccc3)cc12 | 50.1
Cc1cc(=O)oc2c(C)c3oc(CBr)c(Br)c3cc12 | 95.7
O=[N+]([O-])c1ccc(/C=C(/c2ccc([N+](=O)[O-])o2)S(=O)(=O)c2ccccc2)o1 | 39.1

Next compound, please.
Check the records and state TGI for "CN1CCN(c2ccc(NC3=C(Cl)C(=O)c4ncccc4C3=O)cc2C#N)CC1"
24.3

---

Each item that follows carries a reported TGI.
# Tested on: NCI-H23 lung
# Run description: NCI tumour cell line growth inhibition, 48 h

Illustrative cases are given below, each with its answer.
COc1cc2c(c(OC)c1OC)C(=O)[C@H](Br)[C@H]2NC(=O)NCCCl | > 100 µM
COc1cc(Cl)c2c3c(c(C(=O)c4ccccc4)oc13)CCC2 | > 100 µM
COc1cccc(NC(=O)CC(=O)N2N=C(C)C(N=Nc3ccc(S(=O)(=O)CCOS(=O)(=O)O)cc3)C2=O)c1 (centres undefined) | 20.9 µM
CC1C=C[C@H](Sc2ccccc2)CC[C@@]1(C)O (some centres undefined) | > 100 µM
CC(=O)C(=[N+]=[N-])C(=O)OCCOC(=O)C(=[N+]=[N-])C(C)=O | > 1 µM

Print NCI-H23 lung TGI for "CC(C)(CC#N)c1cc(CC(C)(C)c2cc(CC(C)(C)c3cc(C(C)(C)C4(C)OCCO4)no3)no2)no1" .
> 100 µM

---

# Tested on: NCI-H460 lung
# Run description: NCI tumour cell line growth inhibition, 48 h
Each item that follows carries a reported TGI.

CC(C)(Oc1ccc2c(=O)cc(-c3ccccc3)oc2c1)C(=O)Nc1c(Cl)cccc1Cl | > 100 µM
CCCC(=O)OCC1OC(n2cc(F)c(=O)[nH]c2=O)C(F)C1OC(=O)CCC (stereo not given) | > 100 µM
O=C1/C(=C\c2ccc(F)cc2)CCOc2c1ccc1ccccc21 | 97.9 µM
CCCCCCC#CC#Cc1cccc(=O)o1 | 47.9 µM
Oc1c(I)cc(-c2nc3ccccc3s2)cc1CN(Cc1ccccn1)Cc1ccccn1 | 5.94 µM
CCCCNC(=O)CCN(C(=O)O)S(=O)(=O)c1ccc(NC(=O)c2ccccc2)cc1 | > 100 µM

Check the records and state TGI for "CCCSc1ccc2[nH]c(N3C(=O)/C(=C/c4cc(OC)c(OC)c(OC)c4)N=C3c3ccccc3)cc2c1"
> 37.5 µM

Check the records and state TGI for "C(=C\c1nccc2c1[nH]c1ccccc12)/c1ccccc1"
13.7 µM

---

# Tested on: DU-145 prostate
# Run description: NCI tumour cell line growth inhibition, 48 h
Each item that follows carries a reported TGI.

Illustrative cases are given below, each with its answer.
O=S(=O)(NCCNc1cc(-c2cn(-c3ccccc3)nc2-c2cccc(O)c2)ccn1)c1ccc(Cl)cc1 | 21.3 µM
CC(=O)OC1CCC2(C)C(=CCC3C4CCC5(OC6CC(C)CN(C(C)=O)C6C5C)C(C)=C4C(=O)C32)C1 (stereo not drawn) | > 100 µM
CC(=O)/C=C/C1=C(c2cccs2)c2ccccc2CC1 | > 100 µM
CCOP(=O)(OCC)[C@]12C[C@@H](C)C=C[C@H]1COC2=O | > 100 µM
COc1cc2c(cc1OCCCCCCCCN1C(=O)c3cccc4cccc(c34)C1=O)N=C[C@@H]1CCCN1C2=O | > 100 µM
C[C@H](CCC(=O)O)[C@H]1CC[C@H]2[C@@H]3[C@H](O)C[C@@H]4C[C@H](O)CC[C@]4(C)[C@H]3CC[C@]12C | > 100 µM

Check the records and state TGI for "[C-]#[N+][C@]12C(=O)[C@H](CCC1(C)C)C(C)(C)[C@H]1C(=O)N(C)c3cccc2c31"
> 100 µM

Check the records and state TGI for COC1CC(CC2CCC(C)C(C(C)C(=O)O)O2)OC2(OC(C)(C3CCC(C)(C4OC(C5OC(O)(CO)C(C)CC5C)CC4C)O3)CC2C)C1C (stereo not drawn)
> 100 µM

---

Each item that follows carries a reported TGI.
# System: T-47D breast
# Run description: NCI tumour cell line growth inhibition, 48 h
Where a SMILES comes first, the peptide text is derived from it.

CCCSc1ccc2[nH]c(N3C(=O)/C(=C/c4cc(OC)c(OC)c(OC)c4)N=C3c3ccccc3)cc2c1 | 37 µM
COc1ccc(/C=C(/C)[N+](=O)[O-])cc1 | > 100 µM
O=c1c2ccccc2[nH]c(=S)n1-c1ccc(N=Nc2cccc3cc(O)ccc23)cc1 | > 100 µM
Nc1ccc(Oc2ccc(C34CC5CC(C3)CC(c3ccc(Oc6ccc(N)cc6)cc3)(C5)C4)cc2)cc1 | 66.3 µM
CC1(C)CCC[C@@]2(C)C1C(=O)[C@@H]1O[C@]1(C)[C@@H]2CO (some centres not stated) | > 100 µM
CC(C)(C)[Si](C)(C)OCC1C=CC(n2cnc3c(N)ncnc32)O1 (configuration not stated) | > 100 µM

Check the records and state TGI for CC(=O)OC1CCC2(C)C(=CCC3C4CCC5(OC6CC(C)CN(C(C)=O)C6C5C)C(C)=C4C(=O)C32)C1 (configuration not stated)
49 µM

Check the records and state TGI for "COC(=O)OCc1ccc2c(c1)C(=O)c1c-2n(CCCBr)c(=O)c2cc([N+](=O)[O-])ccc12"
> 100 µM

Check the records and state TGI for CCC(C)C(NC(=O)C1CCCN1C(=O)C(CC(C)C)NC(=O)C(CC(C)C)NC(=O)C(N)CC(C)C)C(=O)NC(C(=O)NCC(=O)NC(CC(N)=O)C(=O)NC(CC(C)C)C(=O)NC(CC(C)C)C(=O)NC(CC(C)C)C(N)=O)C(C)C (configuration not stated) (H-LLLPIVGNLLL-NH2; configuration not given here)
> 50 µM

Check the records and state TGI for "CN(C)CCc1ccnc2nc(-c3ccc4ccccc4c3)cn12"
> 100 µM

Check the records and state TGI for "C#Cc1cccc(Oc2ccc(NC(=O)CCl)cc2)c1"
> 82.5 µM
